Data origin: PubChem BioAssay (NCI)

- Protocol summary: NCI Yeast Anticancer Drug Screen. Data for the rad50 strain (AID 155)
- Measurement conditions: S. cerevisiae rad50 strain growth inhibition; at 50.0 µM (retest, dose inferred, filed as 5.0)
This is part of a sample that, as a whole, favours compounds with a hit. Of some 79,000 tested, about 15% had one in any assay. Calls of active or inactive are those of the source. Rule as the data show it: active = growth inhibition above about 70%; inactive = the rest.
Possible outcomes: active, inactive

>  <Molecule>
CCOC(=O)/C=C(\C)c1ccc([N+](=O)[O-])cc1

>  <Label value>
inactive

$$$$
>  <Molecule>
C1=C(c2ccccc2)OC(c2ccccc2)=C[P+]1(c1ccccc1)c1ccccc1

>  <Label value>
active

$$$$
>  <Molecule>
S=C(Nc1ccc(Cl)c(Cl)c1)SC1CCCCC1

>  <Label value>
active

$$$$
>  <Molecule>
CCCCOC(=O)c1ccc(S(=O)(=O)c2ccc(C(=O)OCCCC)cc2)cc1

>  <Label value>
inactive

$$$$
>  <Molecule>
CN(C)CCNC(=O)C(c1ccccc1)c1ccccc1

>  <Label value>
inactive

$$$$
>  <Molecule>
CC(=O)c1c2c(cc3c1CC1(Cc4cc5c(cc4C1)C(=O)CCC5)C3)CCCC2 (configuration not stated)

>  <Label value>
inactive

$$$$
>  <Molecule>
Oc1c(Cl)c(Cl)c(O)c2c1CCCC2

>  <Label value>
active

$$$$
>  <Molecule>
CCOC(=O)c1sc2c(c1O)c(=O)n(-c1ccccc1)c(=S)n2-c1ccccc1

>  <Label value>
active

$$$$
>  <Molecule>
C1=NN(c2ccccc2)C2c3ccccc3CCCC12 (configuration not stated)

>  <Label value>
active

$$$$
>  <Molecule>
CCCCCCCCCCC(NC(C)=O)(C(=O)OCC)C(=O)OCC

>  <Label value>
active

$$$$
>  <Molecule>
Cc1ccc(Cl)cc1NN

>  <Label value>
active

$$$$
>  <Molecule>
O=C1CC(c2ccccc2)NN1 (configuration not stated)

>  <Label value>
active

$$$$
